- method.notes: Volume of distribution in CD-1 mouse at 1 mg/kg, iv by LC-MS/MS analysis
- Assay type: ADME, organism-based
- conditions.used: in vivo
property.measured: Vd (L/kg)
One number for each entry, in L/kg.

- compound: "CC(=O)N(C)C1CCN(c2cc(F)cc(NC(=O)c3cc4c(F)ccc(C)c4[nH]3)c2)C1 (configuration not stated)"
  reported: 1.04

Now look at this entry.
Lookup: Return Vd (reported value) for this compound: Cc1ccc(F)c2cc(C(=O)N[C@@H]3CCC[C@H](N4CC[C@H](N(C)S(C)(=O)=O)C4)C3)[nH]c12
Found: 1.04
